Reported GI50 values follow for various molecules
System: SF-539
assay_method_text: NCI tumour cell line growth inhibition, 48 h
Activity calls are given as the source filed them. Cut-off read from the data, not from the text of the source: active = GI50 up to about 1.1 µM and inactive = higher. Peptide text beside a SMILES is read from it. * marks the point of attachment. Boc = CC(C)(C)OC(=O)*
metric_name: GI50

INSERT INTO results (molecule, endpoint_result) VALUES
  ('NC(=S)N1N=C2CCCCCC[C@@H]2[C@H]1c1ccccc1', '> 100 µM (inactive)'),
  ('O=C1c2ccccc2C(=O)N1/N=C1/SC(=N\c2ccccc2)/C(=N/c2ccccc2)N1c1ccccc1', '33.2 µM (inactive)'),
  ('C[C@H](CCC(=O)O)[C@H]1CC[C@H]2[C@@H]3[C@@H](O)C[C@@H]4C[C@H](O)CC[C@]4(C)[C@H]3CC[C@]12C', '> 100 µM (inactive)'),
  ('c1ccc(CN2CCCCC(Sc3ccccc3)CC2)cc1 (stereo not drawn)', '29.8 µM (inactive)'),
  ('N#CCCn1[nH]c(=O)c(Cl)c(Cl)c1=O', '23.3 µM (inactive)'),
  ('CN1CCN(Cn2nc(-c3ccccc3)n(/N=C/c3ccc(-c4ccc(Cl)cc4Cl)o3)c2=S)CC1', '13.5 µM (inactive)'),
  ('COC(=O)C(=O)Cc1nc2ccccc2o1', '> 100 µM (inactive)'),
  ('c1ccc2c(c1)CCc1cc3cc4c(nc3nc1-2)-c1ccccc1CC4', '> 100 µM (inactive)'),
  ('CC(NC(=O)OC(C)(C)C)C(=O)NC(Cc1ccccc1)C(=O)NCC(=O)O (stereo not drawn) (Boc-Ala-Phe-Gly-OH; configuration not given here)', '> 100 µM (inactive)'),
  ('CCCCCCCCCCCCCCCCNc1nc(=O)n(C2OC(C)C(O)C2O)cc1F (stereo not drawn)', '18.2 µM (inactive)'),
  ('O=C(O)/C(Cl)=C(Cl)/C=N/NC(=O)c1cc2ccccc2cc1O', '29.6 µM (inactive)'),
  ('O=C(c1ccccc1)c1c(CNCc2ccccc2)n(C(=O)c2ccccc2)c2ccccc12', '69.3 µM (inactive)'),
  ('CCO[C@]12C[C@H](OC)[C@@]3(O)CC(C1[C@H]3O)C13C4C2[C@H](OC)C1[C@](COC)(CN4CC)[C@H](O)C[C@@H]3OC (stereo partly drawn)', '> 100 µM (inactive)'),
  ('O/N=C(/CC(O)(C(F)(F)F)C(F)(F)F)c1ccccc1', '> 10 µM (inactive)'),
  ('CCOC(=O)c1sc2c(c1OC(=O)c1ccccc1)c(=O)n(-c1ccccc1)c(=S)n2-c1ccccc1', '20.6 µM (inactive)'),
  ('C=CCN(c1cc(OCc2ccccc2)c2c(c1)c(C)cn2S(=O)(=O)c1ccccc1)S(C)(=O)=O', '> 100 µM (inactive)'),
  ('C[C@H](CC[C@@H](O)C(C)(C)O)[C@H]1CC[C@@]2(C)[C@@H]3CC=C4[C@@H](CC[C@H](OC5OC(CO)C(O)C(O)C5O)C4(C)C)[C@]3(C)C(=O)C[C@]12C (stereo partly drawn)', '> 100 µM (inactive)'),
  ('COc1cc(OCc2nc3ccccc3n3cccc23)cc(OC)c1OC', '24.8 µM (inactive)');

###

Tested on: DLD-1
assay_method_text: NCI tumour cell line growth inhibition, 48 h
The source made the active and inactive calls. Cut-off read from the data, not from the text of the source: active = GI50 up to about 1.1 µM and inactive = higher. Where a SMILES comes first, the peptide text is derived from it.
Classes used: active, inactive

INSERT INTO assay_data (compound, cat) VALUES
  ('COC(=O)C1=C(C(=O)OC)C(C(=O)OC)C(C(=O)OC)C(C(=O)OC)(C(=O)OC)C(C(=O)OC)=C1C(=O)OC (stereo not drawn)', 'inactive'),
  ('COc1cc2c(c(OC)c1OC)-c1ccc(SC)c(=O)cc1[C@@H](NCc1ccc([N+](=O)[O-])cc1)CC2', 'active'),
  ('O=C(c1cccs1)N(C(=S)N1CCN(c2ccccn2)CC1)c1ccccc1', 'inactive'),
  ('CN1NC2(CCCCC2)ON=C1c1ccccc1', 'inactive'),
  ('ClC(Cl)=C(Cl)C1(Cl)CC1COCc1ccccc1 (stereo not drawn)', 'inactive'),
  ('CC12C=CC(=O)C=C1CCC1C3CCC(O)(C(=O)CO)C3(C)CC(O)C12F (stereo not drawn)', 'inactive'),
  ('Cc1ccc(Cl)c2c(=O)cc(-c3ccccc3)[nH]c12', 'inactive'),
  ('NCC(NC(=O)OCc1ccccc1)C(=O)O (stereo not drawn)', 'inactive'),
  ('c1ccc2c(c1)CCCC/C2=N/OCC1CO1 (stereo not drawn)', 'inactive'),
  ('COC(=O)c1cc2cc(OC)c(OC)cc2cc(C(=O)OC)c1=O', 'inactive'),
  ('CCC(C)C1NC(=O)C2CCCN2C(=O)CNC(=O)C(C)NC(=O)C(Cc2ccccc2)NC(=O)C(C(C)C)NC1=O (stereo not drawn) (cyclo(GPIVFA); configuration not given here)', 'inactive'),
  ('CC(C)=CC1(C)/C(=N\O)C(C)(CC(C)C)C(=O)N1O (stereo not drawn)', 'inactive'),
  ('COC(=O)C(Cl)=C1CC1', 'inactive'),
  ('CC1=C(C(=O)Nc2ccccc2C)C(c2ccco2)C(C(=O)Nc2ccccc2C)=C(C)N1C', 'inactive'),
  ('Cc1ccc(S(=O)(=O)C(CC(NC=O)S(=O)(=O)c2ccc(C)cc2)NC=O)cc1 (stereo not drawn)', 'inactive'),
  ('C=CC(C)C1(CCCOCc2ccccc2)C(=S)N2CCC3(CC24CCCC14)OCCO3 (stereo not drawn)', 'inactive'),
  ('c1ccc2cc(C3NCCc4nc[nH]c43)ccc2c1 (stereo not drawn)', 'inactive'),
  ('C/C=C/C1=CC(=O)C(O)C1O (stereo not drawn)', 'inactive'),
  ('Cc1cc(Cl)ccc1NC(=O)C1C(=O)N(c2ccc(Cl)cc2C)C(=O)/C1=N\NC(N)=S (stereo not drawn)', 'inactive'),
  ('COC(=O)C(=O)Cc1nc2ccccc2o1', 'inactive'),
  ('CC(=O)Nc1ccc(C(=O)NN2C(=O)C(Cl)C2c2ccccc2O)cc1 (stereo not drawn)', 'inactive'),
  ('COc1cc2oc(-c3ccccc3)cc(=O)c2c(O)c1C', 'inactive'),
  ('CCN1CCC(O)(c2ccc(Cl)c(Cl)c2)C(C(=O)c2ccc(Cl)c(Cl)c2)C1 (stereo not drawn)', 'inactive'),
  ('C/C(=N\NS(=O)(=O)c1ccc(C)cc1)c1cc2ccccc2n1C', 'inactive'),
  ('CCOC(=O)C(C(=O)OCC)S(C)(=O)=O', 'inactive'),
  ('Cc1ccccc1N(CCC#N)C1=NN(C(=O)CC(=O)Nc2ccccc2)C(c2ccccc2)C1 (stereo not drawn)', 'inactive'),
  ('C/C(CC(=O)Nc1ccc(C)cc1C)=N/N=C(N)N', 'inactive'),
  ('O=C(O)C1=Cc2cccc3cccc(c23)C1=O', 'inactive'),
  ('N#CC(C(=O)/C(=N/N)C(C#N)c1ccccc1)c1ccccc1 (stereo not drawn)', 'inactive'),
  ('N#CC1CCCCCCCCCCC(=O)N(CCCl)C1=O (stereo not drawn)', 'inactive'),
  ('CCOC(C/N=c1/nc(N(C)C)ss1)OCC', 'inactive'),
  ('C/C=C/C#CC#C/C=C/C=C/C(O)CCO (stereo not drawn)', 'inactive'),
  ('c1ccc(CN2CCCCC(Sc3ccccc3)CC2)cc1 (stereo not drawn)', 'inactive'),
  ('CC1C(c2ccccc2)N(C)C(c2ccccc2)C(C)C1(O)c1ccccc1 (stereo not drawn)', 'inactive'),
  ('Cc1csc(/N=C(/NCCN2CCOCC2)Nc2nc(C)cs2)n1', 'inactive'),
  ('O=C(c1ccc(Cl)cc1)N(C(=S)N1CCN(c2ccccn2)CC1)c1ccccc1', 'inactive'),
  ('C=CC/N=C1\NC(=O)C(CC(=O)Nc2ccc(C)cc2)S1 (stereo not drawn)', 'inactive'),
  ('O=C(N/C(=C\c1cc(Cl)ccc1Cl)c1nc2cc(Cl)ccc2[nH]1)c1ccccc1', 'inactive');

###

System: SK-MEL-2
assay_method_text: NCI tumour cell line growth inhibition, 48 h
Calls of active or inactive are those of the source. Rule as the data show it: active = GI50 up to about 1.1 µM and inactive = higher.
metric_name: GI50

INSERT INTO results (compound, system_tested, endpoint_result) VALUES
  ('Cc1cc2c(C)nn(Cc3ccccc3Cl)c2c(C#N)c1C', 'SK-MEL-2', '> 100 µM (inactive)'),
  ('CCN1C[C@]2(C)CC[C@H](OC)C34C1C([C@H](OC(C)=O)[C@@H]32)[C@@]1(OC)C[C@H](OC)[C@H]2C[C@@H]4[C@@H]1[C@H]2O', 'SK-MEL-2', '> 100 µM (inactive)'),
  ('O=C1C=CC2(C=C1)O[C@H](COCc1ccccc1)[C@@H](COCc1ccccc1)O2', 'SK-MEL-2', '1.71 µM (inactive)'),
  ('CCCCOC(=O)C1C(c2ccc(Cl)cc2)NC(c2ccc(Cl)cc2)C(C(=O)OCCCC)S1(=O)=O (stereo not given)', 'SK-MEL-2', '> 100 µM (inactive)'),
  ('O=c1[nH]nc(Cc2ccc(Cl)cc2)n1/N=C/c1ccc([N+](=O)[O-])o1', 'SK-MEL-2', '3.38 µM (inactive)'),
  ('CN1CCN(Cn2nc(-c3ccccc3)n(/N=C/c3ccc(-c4ccc(Cl)cc4Cl)o3)c2=S)CC1', 'SK-MEL-2', '20.7 µM (inactive)'),
  ('C=CC(C)C1(CCCOCc2ccccc2)C(=S)N2CCC3(CC24CCCC14)OCCO3 (stereo not given)', 'SK-MEL-2', '12.2 µM (inactive)'),
  ('O/N=C(/CC(O)(C(F)(F)F)C(F)(F)F)c1ccccc1', 'SK-MEL-2', '> 10 µM (inactive)'),
  ('COc1ccc(C(=O)/C=C/c2ccc(OCC(=O)N3CCN(c4ccccc4)CC3)cc2)cc1', 'SK-MEL-2', '45.4 µM (inactive)'),
  ('O=C1NC(=S)NC(=O)C1=Cc1cccc2cc3ccccc3cc12', 'SK-MEL-2', '1.92 µM (inactive)'),
  ('CC12c3c4cc(Br)cc3Oc3cc(Br)cc(c31)Oc1cc(Br)cc(c12)O4', 'SK-MEL-2', '23.1 µM (inactive)'),
  ('COc1cc(OCc2nc3ccccc3n3cccc23)cc(OC)c1OC', 'SK-MEL-2', '> 100 µM (inactive)'),
  ('CCc1ccc(Nc2ccc([N+](=O)[O-])cc2[N+](=O)[O-])cc1', 'SK-MEL-2', '> 100 µM (inactive)'),
  ('O=C(c1cccs1)N(C(=O)N1CCN(c2ccccc2)CC1)S(=O)(=O)c1ccccc1', 'SK-MEL-2', '18.7 µM (inactive)'),
  ('CC1(C)CC(=O)C(=CNC(=S)c2ccccc2)C(=O)C1', 'SK-MEL-2', '> 100 µM (inactive)'),
  ('CC(=O)NCCC1CN(C(=O)/C=C/I)c2ccccc21 (stereo not given)', 'SK-MEL-2', '3.29 µM (inactive)'),
  ('N#C/C(=C1/Sc2c(nc[nH]c2=O)N1c1ccccc1)c1nc2ccccc2[nH]1', 'SK-MEL-2', '> 100 µM (inactive)'),
  ('C/C(=N\C1CCCCC1)c1ccccc1O', 'SK-MEL-2', '> 100 µM (inactive)'),
  ('Nc1cc(CO)cc(Nc2c3ccccc3nc3occc23)c1', 'SK-MEL-2', '23.6 µM (inactive)'),
  ('C/C=C\C(CC(=O)NCCC1CN(S(=O)(=O)c2ccc(C)cc2)c2ccccc21)CC(=O)OC (stereo not given)', 'SK-MEL-2', '> 100 µM (inactive)');
